# System: SK-MEL-2 melanoma
# TEST SUMMARY: NCI-60 one-dose screen, 48 h
# TEST SETTINGS: 10 µM unless noted
This is part of a sample that, as a whole, favours compounds with a hit. Of some 83,000 tested, about 20% had one in any assay. The source made the active and inactive calls. The calls were made as follows: active = growth percent below 10; inactive = the rest.
Form entry, call: pick from active, inactive

input: I'd appreciate the recorded outcome for COc1ccc(C2=CN3CC=CCC3CC2=O)cc1 (centres undefined) from this test.
output: inactive

input: Record: CCCCCCCCn1ccc2cc(NC(=O)Cn3cc(CN4CCOCC4)nn3)ccc21
output: inactive

input: Can you check CCc1ccc(CCC(=O)Nc2ncc(Cc3ccc(Cl)cc3)s2)o1 next?
output: inactive

input: Same question for C=C1C(=O)O[C@H]2[C@H]1CC/C(COC(=O)c1cc3cc(F)ccc3[nH]1)=C\CC[C@@]1(C)O[C@@H]21 please.
output: active

input: Then this compound: O=c1ccc2nc(C(F)(F)F)nn(-c3ccccc3)c-2c1
output: inactive

input: What about this compound? O=C(/C=C/c1cccc(Cl)c1)c1cccc(OCCCCOc2cccc(C(=O)/C=C/c3cccc(Cl)c3)c2)c1
output: inactive

input: Can you check COc1ccc(C(c2cc(OC)c(OC)c(OC)c2)N2CCCC2)cc1 (centres undefined) next?
output: inactive

input: Cool, now COc1cc(C2Cc3ncccc3-c3[nH]c(=O)c4cccnc4c32)cc(OC)c1OC (centres undefined)
output: inactive

input: Field entry: C/C(=N\O)C(=O)NCCCCCC(=O)Nc1ccccc1
output: inactive

input: Then O=C(CCCCCCN1CC(=O)N2[C@@H](c3ccc(Cl)cc3)c3[nH]c4ccccc4c3C[C@H]2C1=O)NO ?
output: inactive

input: How about this compound: CSCCC(NC(=O)c1ccccc1)C(=O)N/N=C1\S/C(=C/c2ccc(Cl)cc2)C(=O)N1C (centres undefined)
output: inactive

input: And for CCOc1ccc(NC(=O)c2cc(OC)c(OC)c(OC)c2)cc1 ?
output: inactive

input: # iterate: COCCCOc1cc(C[C@@H](C[C@H](N)[C@@H](O)C[C@H](C(=O)NCC(C)(C)C(N)=O)C(C)C)C(C)C)ccc1OC
output: inactive

input: # iterate: CCOC(=O)C1CCN(c2ccc(N3C[C@@H](CNCc4ccc(C(=N)N)cc4)OC3=O)cc2)CC1
output: inactive

input: Request: CC1(C)O[C@H]2OC3CCC(=O)CC3(O)[C@H]2O1 (some centres undefined)
output: inactive

input: What do we get for Clc1ccc(-c2nc(-c3c[nH]c4ncccc34)cs2)cc1 ?
output: inactive

input: Now give it for C=C(CN1CC=CCC1)[C@@H]1CC[C@]2(CO)CC[C@]3(C)[C@H](CC[C@@H]4[C@@]5(C)CC[C@H](O)C(C)(C)[C@@H]5CC[C@]43C)[C@@H]12 too.
output: inactive

input: And the next one, CS(=O)(=O)Cc1cnc(C2OCCO2)s1 ?
output: inactive

input: Next record, please: S=c1[nH]c2cc(Cl)ccc2o1
output: inactive

input: Request: O=C1/C(=C/c2ccc(Br)cc2)COc2ccc(O)c(O)c21
output: inactive

input: And for Cc1c(N2CN3C[C@H](C)N4CN(c5c(C)n(C)n(-c6ccccc6)c5=O)CN5C[C@@H](C)N(C2)C3C54)c(=O)n(-c2ccccc2)n1C (some centres undefined) ?
output: inactive

input: Note, next up: COc1cc(OC)cc(C2C(C#N)=C(N)Oc3c2ccc2ccc(O)cc32)c1 (centres undefined)
output: inactive

input: What do you have for Cc1ccc(-c2cc(C(=O)N3N=C(c4ccc(N)cc4)CC3c3ccc(Cl)cc3)c3ccccc3n2)cc1 (centres undefined) ?
output: active

input: Okay, and COc1cc(C(=O)C(=O)c2cc(OC)c(O)c(OC)c2)cc(OC)c1O ?
output: inactive

input: For CCN(CCO)CC(C)Nc1ccc([N+](=O)[O-])c2sc3ccccc3c(=O)c12 (centres undefined) then?
output: inactive

input: Let us now turn to O=C(Cn1nnc2ccccc21)Nc1ccc(-c2nc3ccccc3s2)cc1
output: inactive

input: What do you get for COc1ccc(-c2ccc(=O)oc2C#Cc2cc(OC)c(OC)c(OC)c2)cc1O ?
output: inactive

input: Again, but for COC(=O)C1=Nc2ccc(F)cc2/C1=C\c1sc(Nc2ccc(O)cc2)nc1O
output: inactive

input: Also C=CC(=O)N1CCN(c2ccc3cccc(NC(=O)c4cnc(C)cn4)c3n2)CC1 , if possible.
output: inactive

input: And COc1ccc(-c2cc(-c3ccc(OC)cc3)nc(NCCCNc3ccnc4cc(Cl)ccc34)n2)cc1 ?
output: inactive

input: And then CC1=CCC[C@@H]2C1(C)CC[C@H](C)[C@@]2(C)CC1=CC(=O)C(SC(C)(C)C)=CC1=O (some centres undefined) , what is it?
output: inactive

input: Same read-out for O=C(NCc1ccc2c(c1)OCO2)NCC1CCCC(CNC(=O)NCc2ccc3c(c2)OCO3)C1 (centres undefined) ?
output: inactive

input: Next up: COc1ccc(C2C3=C(COC3=O)N(CCO)c3cc4c(cc32)OCCO4)cc1OC (centres undefined)
output: inactive

input: Again, but for COP(=O)(OC)c1nnn(-c2cccc([N+](=O)[O-])c2)c1C
output: inactive

input: Now this one: CNC(=O)c1cc(Oc2ccc3nc(NC(=O)Nc4ccc(Cl)c(Cl)c4)sc3c2)ccn1
output: inactive

input: Now try CCCCCCCC/C=C\CCCCCCCCOc1ccccc1CC(=O)NCC[N+]1(C)CCCCC1 .
output: inactive

input: Same thing, different compound: CCCCCCCC/C=C\CCCCCCCCOc1ccc(CC(=O)NCC[N+](C)(C)C)cc1
output: inactive

input: For CCCn1c(=S)sc2c1nc(C)n1c(Nc3ccccc3)nnc21 then?
output: active

input: Note, next up: Cc1nn(-c2ccccc2)c(/N=C/N(C)C)c1/C=C/C(=O)c1ccc(Cl)cc1
output: inactive
